Below, each entry is listed alongside its reported EC50.
- System: parental HEK cells
- PROCEDURE_SUMMARY: HEK parental Agonist Counterscreen Assay (non-transfected cells)
- Format: cell-based
- TEST_CONDITIONS: Homo sapiens, HEK293; HEK Agonist Activity section of Table 4 (parental HEK counterscreen)
- Source text: The high control for the agonist counterscreen was Forskolin not acetylcholine.

# annotated cases, reported EC50 shown
{"COMPOUND": "CC(Oc1ccc(Cl)cc1Cl)C(=O)NNC(=O)c1ccncc1 (stereo not shown) [SR-01000319951]", "EC50": "> 14.1 µM"}
{"COMPOUND": "O=C(CSc1ccc(Cl)cc1)NNC(=O)c1ccc([N+](=O)[O-])cc1 [SR-01000286858]", "EC50": "> 14.1 µM"}
{"COMPOUND": "C=C1CC(C)(c2ccc(OC)cc2)C(=C)C1CC(=O)CC1CCCCC1 (stereo not shown) [SR-01000918719]", "EC50": "> 14.1 µM"}
{"COMPOUND": "C=C(CC1C(=O)CC(c2ccccc2)(c2ccccc2)C1=O)C(C)CC1=CC=CC1 (stereo not shown) [SR-01000062305]", "EC50": "> 14.8 µM"}
{"COMPOUND": "COc1ccc(Cl)cc1C(=O)NNC(=O)CCc1ccc([N+](=O)[O-])cc1 [SR-01000054340]", "EC50": "> 14.2 µM"}

State its EC50: COc1ccc2cc(C3(C)CC(=O)N(CC(=O)N(CC(C)C)CC(C)C)C3=O)ccc2c1 (stereo not shown) [SR-01000054961]
> 14.1 µM

State its EC50: O=C(NCCc1ccc(Cl)cc1)c1nnc(Cc2ccc(F)cc2)o1 [SR-01000125346]
> 14.1 µM

State its EC50: O=C(Cn1cnc2ccccc21)NCCCn1ccc2ccccc21 [SR-01000926263]
> 14.1 µM
